biological target: human VR1 (Homo sapiens, UniProt Q8NER1); construct: expressed in transfected cells; experiment: capsaicin-induced Ca2+ influx in the human VR1-transfected CHO cell line (Assay 1); format: cell-based; settings: Table 3; 10 nM capsaicin, human VR1-CHOluc9aeq cells; read-out: activity class
Sequence (Q8NER1 whole entry): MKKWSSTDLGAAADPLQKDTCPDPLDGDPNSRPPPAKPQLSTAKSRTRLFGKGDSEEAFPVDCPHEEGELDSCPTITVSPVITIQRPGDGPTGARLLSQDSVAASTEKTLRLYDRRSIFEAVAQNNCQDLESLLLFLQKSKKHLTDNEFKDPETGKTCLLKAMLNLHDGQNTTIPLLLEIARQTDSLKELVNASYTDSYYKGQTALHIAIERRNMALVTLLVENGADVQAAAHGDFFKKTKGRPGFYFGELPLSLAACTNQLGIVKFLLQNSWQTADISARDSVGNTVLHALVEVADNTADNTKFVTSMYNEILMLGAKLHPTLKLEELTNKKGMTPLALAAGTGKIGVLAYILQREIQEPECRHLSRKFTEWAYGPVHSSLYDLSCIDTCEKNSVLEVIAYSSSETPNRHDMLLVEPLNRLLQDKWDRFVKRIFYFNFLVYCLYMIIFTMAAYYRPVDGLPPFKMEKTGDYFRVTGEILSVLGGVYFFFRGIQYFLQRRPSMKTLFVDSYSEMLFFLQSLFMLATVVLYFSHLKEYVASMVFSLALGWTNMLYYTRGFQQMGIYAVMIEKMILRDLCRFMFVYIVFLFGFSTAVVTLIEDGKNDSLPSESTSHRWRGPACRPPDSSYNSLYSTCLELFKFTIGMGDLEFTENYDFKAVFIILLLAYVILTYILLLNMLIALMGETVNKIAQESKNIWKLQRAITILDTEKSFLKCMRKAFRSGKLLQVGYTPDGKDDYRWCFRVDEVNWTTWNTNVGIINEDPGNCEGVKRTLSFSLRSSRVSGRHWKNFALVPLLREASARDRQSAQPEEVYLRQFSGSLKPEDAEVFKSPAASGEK
assay_metric: IC50

compound	test_target	IC50
Cc1ccccc1NC(=O)Nc1cccc2c1CC(O)CC2 (stereo not shown)	human VR1 (Homo sapiens, UniProt Q8NER1)	500 to 1000 nM
Cc1ccc(NC(=O)Nc2cccc3c2CC(O)CC3)cc1 (stereo not shown)	human VR1 (Homo sapiens, UniProt Q8NER1)	100 to 500 nM
Cc1ccc(NC(=O)Nc2cccc3c2CC(O)CC3)cc1C (stereo not shown)	human VR1 (Homo sapiens, UniProt Q8NER1)	< 100 nM
CC(C)c1cccc(NC(=O)Nc2cccc3c2CC(O)CC3)c1 (stereo not shown)	human VR1 (Homo sapiens, UniProt Q8NER1)	< 100 nM
CSc1ccc(NC(=O)Nc2cccc3c2CC(O)CC3)cc1 (stereo not shown)	human VR1 (Homo sapiens, UniProt Q8NER1)	100 to 500 nM
COc1ccc(NC(=O)Nc2cccc3c2CC(O)CC3)cc1OC (stereo not shown)	human VR1 (Homo sapiens, UniProt Q8NER1)	100 to 500 nM

Look up and report measured IC50 (human VR1 (Homo sapiens, UniProt Q8NER1)) for the following compound: CCc1cccc(NC(=O)Nc2cccc3c2CC(O)CC3)c1 (stereo not shown)
< 100 nM

----------
biological target: human VR1 (Homo sapiens, UniProt Q8NER1); construct: expressed in transfected cells; assay: capsaicin-induced Ca2+ influx in the human VR1-transfected CHO cell line (Assay 1); type: cell-based; conditions: Table 2; 10 nM capsaicin, human VR1-CHOluc9aeq cells; read-out: activity class
assay_metric: IC50

compound	test_target	IC50
O=C(NCc1ccccc1C(F)(F)F)Nc1cccc2c1CC(O)CC2 (stereo not drawn)	human VR1 (Homo sapiens, UniProt Q8NER1)	< 0.1 µM
O=C(NCc1ccc(Cl)cc1)Nc1cccc2c1CC(O)CC2 (stereo not drawn)	human VR1 (Homo sapiens, UniProt Q8NER1)	< 0.1 µM
COc1ccc(CNC(=O)Nc2cccc3c2CC(O)CC3)c(OC)c1 (stereo not drawn)	human VR1 (Homo sapiens, UniProt Q8NER1)	0.1 to 0.5 µM
O=C(NCc1ccc(C(F)(F)F)c(NC2CCCC2)c1)Nc1cccc2c1CC(O)CC2 (stereo not drawn) [Example 4-51]	human VR1 (Homo sapiens, UniProt Q8NER1)	< 0.1 µM
COc1cccc(CNC(=O)Nc2cccc3c2CC(O)CC3)c1 (stereo not drawn)	human VR1 (Homo sapiens, UniProt Q8NER1)	0.1 to 0.5 µM

Input O=C(NCc1ccc([N+](=O)[O-])cc1)Nc1cccc2c1CC(O)CC2 (stereo not drawn) , output reported IC50.
< 0.1 µM

Input O=C(NCc1cc(C(F)(F)F)cc(C(F)(F)F)c1)Nc1cccc2c1CC(O)CC2 (stereo not drawn) , output reported IC50.
< 0.1 µM

Input O=C(NCc1ccc(C(F)(F)F)c(NC2CCCC2)c1)Nc1cccc2c1CC(O)CC2 (stereo not drawn) [Example 4-52] , output reported IC50.
< 0.1 µM

Input COc1ccccc1CNC(=O)Nc1cccc2c1CC(O)CC2 (stereo not drawn) , output reported IC50.
0.1 to 0.5 µM

----------
Catalogue of melting point values

Sample answers from the record:
compound	value_reported
CN(C(=O)Nc1ccc(Cl)c(C(F)(F)F)c1)c1cccc2c1CC(O)CC2 (stereo not drawn)	136 to 137 °C
O=C(NCc1ccc(C(F)(F)F)cc1)Nc1cccc2c1C[C@H](O)CC2	204.3 °C
CCOC(=O)c1cccc(NC(=O)Nc2cccc3c2CC(O)CC3)c1 (stereo not drawn)	176 to 178 °C
Cc1ccccc1NC(=O)Nc1cccc2c1CC(O)CC2 (stereo not drawn)	223 °C
Cc1cccc(CNC(=O)Nc2cccc3c2CC(O)CC3)c1 (stereo not drawn)	194 to 196 °C

Now consider a different compound.
Input O=C(NCCc1ccccc1)Nc1cccc2c1CC(O)CC2 (stereo not drawn) , output reported melting point.
161 to 163 °C

----------
target: human VR1 (Homo sapiens); construct: expressed in transfected cells; experiment: capsaicin-induced Ca2+ influx in the human VR1-transfected CHO cell line (Assay 1); assay type: cell-based; conditions: Table 3; 10 nM capsaicin, human VR1-CHOluc9aeq cells; read-out: activity class
pIC50: −log10 of the molar value.
assay_metric: pIC50

Sample answers from the record:
compound	value_reported
O=C(Nc1ccccc1F)Nc1cccc2c1CC(O)CC2 (stereo not drawn)	6.00 to 6.30
CCOc1ccc(NC(=O)Nc2cccc3c2CC(O)CC3)cc1 (stereo not drawn)	> 7.00

Now consider a different compound.
Input CC(C)(C)c1ccc(NC(=O)Nc2cccc3c2CC(O)CC3)cc1 (stereo not drawn) , output reported pIC50.
> 7.00

----------
molecular target: human VR1 (Homo sapiens); construct: expressed in transfected cells; test: capsaicin-induced Ca2+ influx in the human VR1-transfected CHO cell line (Assay 1); type: cell-based; conditions: Table 1; 10 nM capsaicin, human VR1-CHOluc9aeq cells; read-out: activity class
pIC50: −log10 of the molar value.
assay_metric: pIC50

Sample answers from the record:
compound	pIC50
COc1cccc(NC(=O)Nc2cccc3c2CC(O)CC3)c1 (centres unmarked) [Example 2-5]	6.30 to 7.00
O=C(NCc1ccc(F)cc1)Nc1cccc2c1CC(O)CC2 (centres unmarked) [Example 2-29]	> 7.00

Now consider a different compound.
Input O=C(NCc1ccccc1)Nc1cccc2c1CC(O)CC2 (centres unmarked) [Example 2-22] , output reported pIC50.
6.30 to 7.00

----------
biological target: human VR1 (Homo sapiens, UniProt Q8NER1); construct: expressed in transfected cells; assay: capsaicin-induced Ca2+ influx in the human VR1-transfected CHO cell line (Assay 1); type: cell-based; settings: Table 3; 10 nM capsaicin, human VR1-CHOluc9aeq cells; read-out: activity class
pIC50: −log10 of the molar value.
Catalogue of pIC50 values

Input O=C(Nc1ccc(O)cc1)Nc1cccc2c1CC(O)CC2 (stereo not drawn) , output reported pIC50.
6.00 to 6.30

Input O=C(Nc1cccc(Oc2ccccc2)c1)Nc1cccc2c1CC(O)CC2 (stereo not drawn) , output reported pIC50.
> 7.00

Input Cc1cc(C)cc(NC(=O)Nc2cccc3c2CC(O)CC3)c1 (stereo not drawn) , output reported pIC50.
> 7.00

----------
biological target: human VR1 (Homo sapiens, UniProt Q8NER1); construct: expressed in transfected cells; test: capsaicin-induced Ca2+ influx in the human VR1-transfected CHO cell line (Assay 1); assay type: cell-based; conditions: Table 1; 10 nM capsaicin, human VR1-CHOluc9aeq cells; read-out: activity class
assay_metric: IC50

Sample answers from the record:
compound	test_target	IC50
CCOC(=O)c1cccc(NC(=O)Nc2cccc3c2CC(O)CC3)c1 (centres unmarked) [Example 2-11]	human VR1 (Homo sapiens, UniProt Q8NER1)	< 100 nM
O=C(Nc1ccc(Oc2ccccc2)cc1)Nc1cccc2c1CC(O)CC2 (centres unmarked) [Example 2-20]	human VR1 (Homo sapiens, UniProt Q8NER1)	< 100 nM
O=C(Nc1ccc(Cl)cc1)Nc1cccc2c1CC(O)CC2 (centres unmarked) [Example 2-4]	human VR1 (Homo sapiens, UniProt Q8NER1)	< 100 nM

Look up and report measured IC50 (human VR1 (Homo sapiens, UniProt Q8NER1)) for the following compound: O=C(NCc1ccccc1F)Nc1cccc2c1CC(O)CC2 (centres unmarked) [Example 2-27]
100 to 500 nM

Look up and report measured IC50 (human VR1 (Homo sapiens, UniProt Q8NER1)) for the following compound: O=C(Nc1ccccc1Cl)Nc1cccc2c1CC(O)CC2 (centres unmarked) [Example 2-2]
100 to 500 nM

Look up and report measured IC50 (human VR1 (Homo sapiens, UniProt Q8NER1)) for the following compound: CCOC(=O)c1ccccc1NC(=O)Nc1cccc2c1CC(O)CC2 (centres unmarked) [Example 2-10]
> 1000 nM

Look up and report measured IC50 (human VR1 (Homo sapiens, UniProt Q8NER1)) for the following compound: COc1cc(NC(=O)Nc2cccc3c2CC(O)CC3)cc(OC)c1 (centres unmarked) [Example 2-37]
< 100 nM

Look up and report measured IC50 (human VR1 (Homo sapiens, UniProt Q8NER1)) for the following compound: CCNC(=O)Nc1cccc2c1CC(O)CC2 (centres unmarked) [Example 2-33]
> 1000 nM

Look up and report measured IC50 (human VR1 (Homo sapiens, UniProt Q8NER1)) for the following compound: O=C(Nc1cccc(C(F)(F)F)c1)Nc1cccc2c1CC(O)CC2 (centres unmarked) [Example 2-8]
< 100 nM

Look up and report measured IC50 (human VR1 (Homo sapiens, UniProt Q8NER1)) for the following compound: O=C(Nc1cccc(Cl)c1)Nc1cccc2c1CC(O)CC2 (centres unmarked) [Example 2-3]
< 100 nM

Look up and report measured IC50 (human VR1 (Homo sapiens, UniProt Q8NER1)) for the following compound: COc1ccc(CNC(=O)Nc2cccc3c2CC(O)CC3)cc1 (centres unmarked) [Example 2-31]
100 to 500 nM
